Cited source: ChEMBL document CHEMBL1134307

biological target: D(2) dopamine receptor (Rattus norvegicus, UniProt P61169); assay: Binding affinity towards dopamine receptor D2 in rat striatal membranes
Sequence (P61169 whole entry): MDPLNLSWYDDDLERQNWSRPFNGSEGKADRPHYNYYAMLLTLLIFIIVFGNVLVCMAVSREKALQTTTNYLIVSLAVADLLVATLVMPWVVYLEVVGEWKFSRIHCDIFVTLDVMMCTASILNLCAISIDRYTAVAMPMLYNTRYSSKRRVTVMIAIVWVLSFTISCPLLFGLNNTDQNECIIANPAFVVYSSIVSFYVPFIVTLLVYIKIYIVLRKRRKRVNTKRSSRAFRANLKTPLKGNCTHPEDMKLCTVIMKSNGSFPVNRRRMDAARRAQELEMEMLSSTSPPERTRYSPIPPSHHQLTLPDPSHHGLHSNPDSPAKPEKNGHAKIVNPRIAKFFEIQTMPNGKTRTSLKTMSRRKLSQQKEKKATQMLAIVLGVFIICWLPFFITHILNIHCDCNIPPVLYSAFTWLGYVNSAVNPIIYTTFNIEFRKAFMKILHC
pKi: −log10 of the molar value.
measurementLabel: pKi

1) COc1cccc(C2CCC(N3CCN(c4ccccn4)CC3)CC2)c1 (trans isomer) = 5.66
2) COc1cccc(C2CCC(NCCOc3ccccn3)CC2)c1 (stereo in doubt) = 6.23
3) COc1cccc(C2=CCC(N3CCN(c4cccc5ccccc45)CC3)CC2)c1 (stereo unspecified) = 6.49
4) COc1cccc(C2=CCC(N3CCN(c4ccccc4OC)CC3)CC2)c1 (stereo unspecified) = 5.53
5) COc1cccc(C2CCC(N3CCN(c4cccc5ccccc45)CC3)CC2)c1 (trans isomer) = 7.15
6) COc1cccc2c(CCCNCCOc3ccccn3)cccc12 = 6.42
7) COc1cccc(C2=CCC(N3CCN(c4ccccn4)CC3)CC2)c1 (stereo unspecified) = 5.91
8) COc1cccc(C2CCC(N3CCN(c4ccccc4)CC3)CC2)c1 (stereo in doubt; trans) = 6.04
9) COc1ccccc1C1CCC(N2CCN(c3ccccn3)CC2)CC1 (stereo in doubt; cis) = 5.67
10) COc1cccc2c(CCCN3CCN(c4ccccn4)CC3)cccc12 = 6.35
11) COc1ccc(C2CCC(N3CCN(c4ccccn4)CC3)CC2)cc1 (trans isomer) = 6.10
12) COc1ccccc1C1CCC(N2CCN(c3ccccn3)CC2)CC1 (stereo in doubt; trans) = 6.61
13) COc1cccc(C2CCC(N3CCN(c4cccc5ccccc45)CC3)CC2)c1 (stereo in doubt) = 5.88
14) COc1ccc(C2CCC(N3CCN(c4ccccn4)CC3)CC2)cc1 (stereo in doubt) = 6.10
15) COc1cccc(C2CCC(NCCOc3ccccn3)CC2)c1 (cis isomer) = 6.11
16) COc1cccc2c1CCC/C2=C\CCN1CCN(c2ccccn2)CC1 = 6.90
